ASSAY_OVERVIEW: pH of 0.005 molar solution in 15% methanol/85% water
Format: physicochemical
MEASUREMENT_NAME: pH

COMPOUND: C1CNCCN1
pH: 10.4
//
COMPOUND: OCCN(CCO)CCO
pH: 9.1
//
COMPOUND: N=C(Nc1ccccc1)Nc1ccccc1
pH: 10.6
//
COMPOUND: C1CCC2=NCCCN2CC1 [AB-6, 1,8-diazabicyclo[5.4.0]undec-7-ene]
pH: 11.8
//
COMPOUND: CN(C)C(=N)N(C)C
pH: 11.8
//
COMPOUND: c1ccc(Nc2ccccn2)nc1
pH: 8.5

Input C1CN2CCN1CC2 . Output pH: 9.8

// recorded pH for c1ccc(CN(Cc2ccccc2)Cc2ccccc2)cc1 : 8.6
